- METHOD: chemical genetic growth profiling, strain panel (AID 1159580);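 further: tested at 20 µM; growth read once vehicle control cultures reached saturation at 30 °C; 1 = growth at the plate median or of vehicle wells; lower values mean less growth of the strain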
- REPORTED_CONDITIONS: S. cerevisiae deletion strains, growth OD, locus YAL021C, strain ccr4, hits give low values
Screen size: about 5,500 compounds; about 2,000 (36%) were called active. Roughly 18% stayed inconclusive and do not appear here. Some of the results follow.
So I've got a bunch of compounds here, and I need their normalized growth values.
Give bare numbers.

// worked examples, normalized growth included
NCCCCCC(=O)O = 0.99
COc1cc(C)c2c(=O)cc(-c3ccccc3)oc2c1 = 0.983
CN1CCC[C@@H]1CCO[C@](C)(c1ccccc1)c1ccc(Cl)cc1 = 0.88
C[C@@H]1CC[C@H]2C(C)(C)C3CC12CC[C@@]3(C)O (some centres not stated) = 0.942

Below are 3 compounds. Give each one its normalized growth.
1. FC(F)(F)c1cccc(N2CCNCC2)c1
2. CN(C)C(=O)Oc1ccc[n+](C)c1
3. Oc1c(Cl)cc(Cl)c(Cl)c1Cc1c(O)c(Cl)cc(Cl)c1Cl

Response:
1. 0.992
2. 1
3. 0.0649

Below are 2 compounds. Give each one its normalized growth.
1. CC(=O)O[C@]1(C)CC[C@@]23CC1C(C)(C)[C@@H]2CC[C@H]3C
2. c1ccc2c(CC3=NCCN3)cccc2c1

Response:
1: 0.985; 2: 0.944

Below are 3 compounds. Give each one its normalized growth.
1. O=C(O)CCCCCCCC(=O)O
2. COc1cc(NS(C)(=O)=O)ccc1Cc1c2ccccc2nc2ccccc12
3. COC(=O)[C@@H]1OC(=O)C2OC23[C@@]1(C)CCC1[C@]2(C)C(C[C@@H](O)[C@]13C)C(C)(C)[C@H](OC(C)=O)C[C@@H]2OC(C)=O (some centres not stated)

Response:
1. 1.02
2. 0.785
3. 1

----------
So I've got a bunch of compounds here, and I need their normalized growth values.
- METHOD: chemical genetic growth profiling, strain panel (AID 1159580);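 further: tested at 20 µM; growth read once vehicle control cultures reached saturation at 30 °C; 1 = growth at the plate median or of vehicle wells; lower values mean less growth of the strain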
- REPORTED_CONDITIONS: S. cerevisiae deletion strains, growth OD, locus YAL013W, strain DEP1, hits give low values
Hit rate of the full screen: of about 5,500 compounds, about 2,000 (36%) were called active. About 18% were inconclusive and are not listed. Some of the results follow.

// worked examples, normalized growth included
O=S(=O)(NCc1ccc2c(c1)OCO2)c1ccc(F)c(Cl)c1 = 0.98 (inactive)
NC(N)=NCCN1CCCCCCC1 = 1 (inactive)
Clc1ccc(COC(Cn2ccnc2)c2ccc(Cl)cc2Cl)c(Cl)c1 (stereo unspecified) = 0.0568 (active)
N/C(=N/OC(=O)Nc1ccccc1)c1ccc(C2SCCS2)cc1 = 0.889 (active)
Fc1ccc([C@@H]2CCNC[C@H]2COc2ccc3c(c2)OCO3)cc1 = 1.02 (inactive)

Let us move to another entry and its normalized growth.
Prompt: Please look up its normalized growth: Clc1ccc(COC(Cn2ccnc2)c2ccc(Cl)cc2Cl)cc1 (stereo unspecified)
Response: 0.0557 (active)

----------
So I've got a bunch of compounds here, and I need their normalized growth values.
- METHOD: chemical genetic growth profiling, strain panel (AID 1159580);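 further: tested at 20 µM; growth read once vehicle control cultures reached saturation at 30 °C; 1 = growth at the plate median or of vehicle wells; lower values mean less growth of the strain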
- REPORTED_CONDITIONS: S. cerevisiae deletion strains, growth OD, locus YGL167C, strain pmr1, hits give low values
Among all 5,500 compounds or so, about 2,000 (36%) were called active. About 18% were inconclusive and are not listed. Some of the results follow.
Give bare numbers.

// worked examples, normalized growth included
COc1ccc(CCC(=O)c2c(O)cc(O[C@@H]3O[C@H](CO)C(O)[C@H](O)C3O[C@@H]3O[C@@H](C)[C@H](O)[C@@H](O)[C@H]3O)cc2O)cc1O (stereo not given in full) = 1.03
COC(=O)[C@H](c1ccccc1Cl)N1CCc2sccc2C1 = 0.967
C[C@]12CCC3c4ccc(O)cc4CCC3C1CCC2=O (stereo not given in full) = 1.03

Below are 5 compounds. Give each one its normalized growth.
1. CN1CCC[C@@H]1CCO[C@](C)(c1ccccc1)c1ccc(Cl)cc1
2. Cc1cc(CC(=O)O)n(C)c1C(=O)c1ccc(Cl)cc1
3. CN(C)C(=O)Oc1ccc[n+](C)c1
4. COc1cc(C)c2c(=O)cc(-c3ccccc3)oc2c1
5. COC1C=CC23c4cc5c(cc4CN(CC2O)[C@@H]3C1)OCO5 (stereo not given in full)

Response:
1. 1.02
2. 1.02
3. 1.01
4. 0.913
5. 0.971

Below are 4 compounds. Give each one its normalized growth.
1. Nc1nc(F)nc2c1ncn2[C@@H]1O[C@H](COP(=O)(O)O)[C@@H](O)[C@@H]1O
2. C[C@H]1C[C@@H](O)[C@]2(O)[C@@]13CC(=O)OC[C@@]2(C)[C@](C)(O)C(=O)C3
3. CC(=O)C1CC[C@H]2C3CC[C@H]4C[C@H](O)CC[C@]4(C)C3CC[C@]12C (stereo not given in full)
4. COc1ccc2c(c1)OCC(Cc1ccc(O)c(OC)c1)C2=O (stereo not given)

Response:
1: 0.989; 2: 1.02; 3: 1.01; 4: 0.974

Below are 6 compounds. Give each one its normalized growth.
1. CCN1C[C@@]2(COC)C3[C@@H](OC)[C@H]4[C@@H]1[C@]3(C(OC)C[C@H]2O)C1C[C@@]2(O)[C@H](OC(=O)c3ccccc3)C1[C@]4(OC(C)=O)[C@@H](O)[C@@H]2OC (stereo not given in full)
2. CCCCC(=O)O[C@]1(C(=O)CO)CCC2C3CCC4=CC(=O)CC[C@]4(C)C3[C@@H](O)C[C@@]21C (stereo not given in full)
3. O=C(O)C1CCCNC1 (stereo not given)
4. CC1C/C=C/C=C/C=C/C=C/C(O[C@@H]2O[C@H](C)[C@@H](O)[C@H](N)[C@@H]2O)CC2OC(O)(CC(O)CC3OC3/C=C/C(=O)O1)CC(O)C2C(=O)O (stereo not given in full)
5. CC(O)(P(=O)(O)O)P(=O)(O)O
6. NCCCCC(=O)O

Response:
1. 0.998
2. 0.976
3. 1.01
4. 0.984
5. 0.982
6. 1.03

Values from PubChem BioAssay AID1159580
